- ASSAY_SETUP: buffer; pH 7.4; 6.0 h; 150.0 µM
Measured solubility kinetic accompanies every entry in the list below.

In the examples that follow, each entry is paired with its recorded solubility kinetic.
>  <SMILES_STRUCTURE>
CC(=O)Nc1cccc(Nc2nc3ccccc3n3c(C)nnc23)c1

>  <solubility kinetic>
< 1 µg/mL

$$$$
>  <SMILES_STRUCTURE>
Fc1cnc(-c2ccccc2C(F)F)nc1NCc1ccc(-c2ccn[nH]2)cc1

>  <solubility kinetic>
< 1 µg/mL

$$$$
>  <SMILES_STRUCTURE>
Cc1ccc2c(c1)c(=O)c1ccccc1n2CCCC(=O)Nc1cc(Cl)ccc1C

>  <solubility kinetic>
< 1 µg/mL

$$$$

Any idea what its solubility kinetic is? The compound is COc1cc2nccc(Oc3ccc(NC(=O)C4(C(=O)Nc5ccc(F)cc5)CC4)cc3)c2cc1OC
< 1 µg/mL

Which value of solubility kinetic has been reported for Cn1nnnc1Sc1ncnc2scc(-c3cc4ccccc4o3)c12 in the records?
< 1 µg/mL

Entry O=S(=O)(Nc1cccc(C(F)(F)F)c1)c1ccc(NS(=O)(=O)c2ccc3c(c2)OCCO3)cc1 : reported solubility kinetic = ?
< 1 µg/mL

Which solubility kinetic is reported for this compound? Cc1ccc(-n2ncc3c(NCCCN(C)C)ncnc32)cc1Cl
> 51 µg/mL

Value lookup for solubility kinetic; key = CCOc1ccccc1C(=O)Nc1ccncc1C(=O)Nc1cccc(S(=O)(=O)C(F)(F)F)c1
< 1 µg/mL

GET /values?readout=solubility kinetic&item= N=c1c2ccccc2nnn1-c1ccc(C(F)(F)F)cc1
< 1 µg/mL

Given the compound CN1CCN(Cc2ccc(-c3ccc(C(C)(C)C#N)cc3)nc2)CC1 , what is its reported solubility kinetic?
> 49 µg/mL
